Origin of values: ChEMBL document CHEMBL3526109

# ASSAY PROCEDURE: Drug excretion in Sprague-Dawley rat feces treated with [14C]brivanib alaninate at 100 mg/kg, po administered as single dose via gavage by HPLC analysis
# Type: ADME, organism-based
# PARTICULARS: in vivo
# Lookup of reported Compound recovery keyed by entry
Could you give me the number in %? Just the number is fine.

* Cc1cc2c(F)c(Oc3ncnn4cc(OCC(=O)O)c(C)c34)ccc2[nH]1 | 1.8

Qu. I have this molecule here, Cc1cc2c(F)c(Oc3ncnn4cc(OC[C@@H](C)OS(=O)(=O)O)c(C)c34)ccc2[nH]1 , and I need its recorded Compound recovery.
Ans. 3.5

---

# Test system: Plasma
# ASSAY PROCEDURE: Drug level in Sprague-Dawley rat plasma assessed as compound formation treated with [14C]brivanib alaninate at 100 mg/kg, po administered as single dose via gavage measured after 2 hrs by HPLC analysis
# Assay type: ADME, organism-based
# PARTICULARS: in vivo
The label true (1) is reserved for Compound recovery strictly under 3%; false (0) covers values equal to or above it.

• Cc1cc2c(F)c(Oc3ncnn4cc(OC[C@@H](C)O)c(C)c34)ccc2[nH]1 [BRIVANIB] = false (0)

Qu. Consider the molecule Cc1cc2c(F)c(Oc3ncnn4cc(O)c(C)c34)ccc2[nH]1 . Is its Compound recovery strictly less than 3%?
Ans. true (1)

Qu. Consider the molecule Cc1cc2c(F)c(Oc3ncnn4cc(OC[C@@H](C)OS(=O)(=O)O)c(C)c34)ccc2[nH]1 . Is its Compound recovery strictly less than 3%?
Ans. true (1)

Qu. Consider the molecule Cc1cc2c(F)c(Oc3ncnn4cc(OCC(=O)O)c(C)c34)ccc2[nH]1 . Is its Compound recovery strictly less than 3%?
Ans. false (0)

Qu. Consider the molecule Cc1c(OC[C@@H](C)OS(=O)(=O)O)cn2ncnc(Oc3ccc4[nH]c(CO)cc4c3F)c12 . Is its Compound recovery strictly less than 3%?
Ans. false (0)

---

# Tested on: Cynomolgus monkey
# ASSAY PROCEDURE: AUC (0 to 12 hrs) cynomolgus monkey plasma treated with [14C]brivanib alaninate at 10 mg/kg, po administered as single oral dose by HPLC analysis
# Type: ADME, organism-based, Macaca fascicularis
# PARTICULARS: in vivo
# Lookup of reported AUC keyed by entry
Could you give me the number in ugequiv/l.hr? Just the number is fine.

Some molecules with recorded AUC:
- Cc1c(OC[C@@H](C)O)cn2ncnc(Oc3ccc4[nH]c(C(=O)O)cc4c3F)c12: 5006
- Cc1cc2c(F)c(Oc3ncnn4cc(OS(=O)(=O)O)c(C)c34)ccc2[nH]1: 5622.3
- Cc1c(OC[C@@H](C)OS(=O)(=O)O)cn2ncnc(Oc3ccc4[nH]c(CO)cc4c3F)c12: 3272.2
- Cc1cc2c(F)c(Oc3ncnn4cc(OC[C@@H](C)O)c(C)c34)ccc2[nH]1: 42587.2

Now consider a different molecule.
Qu. Form field - read-out: AUC; system: Cynomolgus monkey; submitted item: Cc1c(OS(=O)(=O)O)cn2ncnc(Oc3ccc4[nH]c(C(=O)O)cc4c3F)c12
Ans. 4597.3

---

# ASSAY PROCEDURE: Drug excretion in human feces treated with [14C]brivanib alaninate at 800 mg, po administered as single dose […] by HPLC analysis
# Format: ADME, organism-based
# PARTICULARS: in vivo
VALUE TYPE: Compound recovery

Some compounds with recorded Compound recovery:
- Cc1cc2c(F)c(Oc3ncnn4cc(OC[C@@H](C)O[C@@H]5O[C@H](C(=O)O)[C@@H](O)[C@H](O)[C@H]5O)c(C)c34)ccc2[nH]1: metabolite_not_detected
- CC(=O)COc1cn2ncnc(Oc3ccc4[nH]c(C)cc4c3F)c2c1C: metabolite_not_detected
- Cc1cc2c(F)c(Oc3ncnn4cc(OC[C@@H](C)OS(=O)(=O)O)c(C)c34)ccc2[nH]1: 26.2%
- Cc1c(OS(=O)(=O)O)cn2ncnc(Oc3ccc4[nH]c(C(=O)O)cc4c3F)c12: metabolite_not_detected
- Cc1cc2c(F)c(Oc3ncnn4cc(O[C@@H]5O[C@H](C(=O)O)[C@@H](O)[C@H](O)[C@H]5O)c(C)c34)ccc2[nH]1: metabolite_not_detected
- Cc1c(OS(=O)(=O)O)cn2ncnc(Oc3ccc4[nH]c(CO)cc4c3F)c12: metabolite_not_detected
- Cc1c(OC[C@@H](C)OS(=O)(=O)O)cn2ncnc(Oc3ccc4[nH]c(C(=O)O)cc4c3F)c12: 26.6%
- Cc1c(OC[C@@H](C)OS(=O)(=O)O)cn2ncnc(Oc3ccc4[nH]c(CO)cc4c3F)c12: 8.3%

Qu. I have this compound here, Cc1c(OC[C@@H](C)O)cn2ncnc(Oc3ccc4[nH]c(C(=O)O)cc4c3F)c12 , and I need its recorded Compound recovery.
Ans. 7.4%

Qu. I have this compound here, Cc1c(O)cn2ncnc(Oc3ccc4[nH]c(C(=O)O)cc4c3F)c12 , and I need its recorded Compound recovery.
Ans. metabolite_not_detected

Qu. I have this compound here, Cc1c(O)cn2ncnc(Oc3ccc4[nH]c(CO)cc4c3F)c12 , and I need its recorded Compound recovery.
Ans. metabolite_not_detected

Qu. I have this compound here, Cc1cc2c(F)c(Oc3ncnn4cc(OS(=O)(=O)O)c(C)c34)ccc2[nH]1 , and I need its recorded Compound recovery.
Ans. metabolite_not_detected

Qu. I have this compound here, Cc1cc2c(F)c(Oc3ncnn4cc(OC[C@@H](C)O)c(C)c34)ccc2[nH]1 , and I need its recorded Compound recovery.
Ans. 7.5%

Qu. I have this compound here, Cc1cc2c(F)c(Oc3ncnn4cc(OCC(=O)O)c(C)c34)ccc2[nH]1 , and I need its recorded Compound recovery.
Ans. metabolite_not_detected

Qu. I have this compound here, Cc1cc2c(F)c(Oc3ncnn4cc(O)c(C)c34)ccc2[nH]1 , and I need its recorded Compound recovery.
Ans. metabolite_not_detected
